# TARGET_OF_ASSAY: UniProtKB Q63016
# Sequence (Q63016 whole entry): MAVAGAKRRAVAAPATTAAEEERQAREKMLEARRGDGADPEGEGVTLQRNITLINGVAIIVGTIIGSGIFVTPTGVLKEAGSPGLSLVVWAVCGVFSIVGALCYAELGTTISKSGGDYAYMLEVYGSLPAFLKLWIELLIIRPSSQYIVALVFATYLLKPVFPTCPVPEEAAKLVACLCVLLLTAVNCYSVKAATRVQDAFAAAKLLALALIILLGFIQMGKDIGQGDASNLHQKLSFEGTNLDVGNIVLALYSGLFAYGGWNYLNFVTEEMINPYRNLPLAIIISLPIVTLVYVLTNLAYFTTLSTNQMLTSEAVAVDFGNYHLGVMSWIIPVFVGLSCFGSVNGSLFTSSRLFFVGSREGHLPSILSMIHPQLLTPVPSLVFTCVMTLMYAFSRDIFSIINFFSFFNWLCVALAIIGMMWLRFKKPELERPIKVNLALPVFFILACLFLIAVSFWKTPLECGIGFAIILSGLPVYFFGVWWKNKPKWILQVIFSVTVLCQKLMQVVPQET
# Sequence (Q794F9 whole entry partner): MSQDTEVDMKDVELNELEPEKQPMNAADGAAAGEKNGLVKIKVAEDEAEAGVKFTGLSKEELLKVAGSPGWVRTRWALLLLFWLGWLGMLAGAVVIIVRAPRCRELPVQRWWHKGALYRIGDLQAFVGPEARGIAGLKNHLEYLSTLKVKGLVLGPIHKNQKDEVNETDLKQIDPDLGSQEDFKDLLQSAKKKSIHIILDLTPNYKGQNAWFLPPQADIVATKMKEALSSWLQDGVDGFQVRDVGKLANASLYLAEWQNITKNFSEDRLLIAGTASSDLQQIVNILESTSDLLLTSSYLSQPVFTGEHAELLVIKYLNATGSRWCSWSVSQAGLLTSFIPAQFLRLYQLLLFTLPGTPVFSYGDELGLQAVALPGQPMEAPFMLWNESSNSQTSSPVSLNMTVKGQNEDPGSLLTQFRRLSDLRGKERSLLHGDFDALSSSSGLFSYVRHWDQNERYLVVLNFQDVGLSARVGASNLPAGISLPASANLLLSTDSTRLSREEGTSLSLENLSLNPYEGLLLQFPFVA
# CONDITIONS: LAT1 substrates, tracer concentration
OBSERVABLE: LogPS
Reply briefly: the number, and no unit.

CC(C)C[C@H](N)C(=O)O [L-Leucine] ... −1.45

Input line: Report LogPS for CNC[C@H](N)C(=O)O [L-BMAA] please.
Output line: −3.27

Input line: Report LogPS for N[C@H](C(=O)O)[C@@H]1CC(Cl)=NO1 [Acivicin] please.
Output line: −3.32

Input line: Report LogPS for N[C@@H](Cc1ccccc1)C(=O)O [L-Phenylalanine] please.
Output line: −1.108

Input line: Report LogPS for N[C@@H](Cc1ccc(O)c(O)c1)C(=O)O [L-DOPA] please.
Output line: −1.99

* * *

# CONDITIONS: calculated at brain blood flow […], with rat serum fu
Bucketed by reported Brain vascular extraction (total), buckets being class 0 (below 0.3%), class 1 (0.3% to below 20%), class 2 (20% or more)

The examples below pair each entry with its known result.
CCCCO ... class 2
OC[C@H]1O[C@@](CO)(O[C@H]2O[C@H](CO)[C@@H](O)[C@H](O)[C@H]2O)[C@@H](O)[C@@H]1O ... class 0

Input line: Sort OC[C@H]1O[C@H](OC[C@H]2O[C@H](O[C@]3(CO)O[C@H](CO)[C@@H](O)[C@@H]3O)[C@H](O)[C@@H](O)[C@@H]2O)[C@H](O)[C@@H](O)[C@H]1O into one of the categories.
Output line: class 0

Input line: Sort OCC(O)CO into one of the categories.
Output line: class 1

* * *

# CONDITIONS: rat, in vivo
OBSERVABLE: PoS (mL/s/g)
Write the value in mL/s/g as a bare number.

Input line: Report PoS for O please.
Output line: 0.0287

Input line: Report PoS for CC(C)(C)OC(=O)CCCc1ccc(N(CCCl)CCCl)cc1 please.
Output line: 32.1

Input line: Report PoS for CCCCO please.
Output line: 0.13

Input line: Report PoS for OCCO please.
Output line: 0.000569

* * *

# CONDITIONS: rat, in vivo, pH 7.4
# strict inequality: PcS < 0.01 mL/s/g yields Condition met, everything else yields Condition not met

The examples below pair each entry with its known result.
CN(C)CCCN1c2ccccc2Sc2ccc(Cl)cc21 ... Condition not met
O=C(O)CCCc1ccc(N(CCCl)CCCl)cc1 ... Condition not met
OC[C@H]1O[C@H](OC[C@H]2O[C@H](O[C@]3(CO)O[C@H](CO)[C@@H](O)[C@@H]3O)[C@H](O)[C@@H](O)[C@@H]2O)[C@H](O)[C@@H](O)[C@H]1O ... Condition met
OCC(O)CO ... Condition met
CC(=O)CC(c1ccccc1)c1c(O)c2ccccc2oc1=O (stereo not shown) ... Condition met
OCCCCCCO ... Condition not met
OCCCCO ... Condition not met
O=C(O)c1cc(=O)c2ccccc2[nH]1 ... Condition met

Input line: Given the entry Cn1nnc2c(C(N)=O)ncn2c1=O [Temozolamide] , would its reported PcS be below 0.01 mL/s/g?
Output line: Condition met

Input line: Given the entry OC[C@@H](O)[C@@H](O)[C@H](O)[C@H](O)CO , would its reported PcS be below 0.01 mL/s/g?
Output line: Condition met
